- Tested on: Mouse PERK
- procedure_text: In vitro kinase inhibition assay: PERK-mediated eIF2α phosphorylation
- Format: biochemical
- measurement_context: compounds selected in the initial VLS
measurement_label: Activity (ability to inhibit PERK-mediated eIF2α phosphorylation in vitro)

| compound | obs_value |
| --- | --- |
| COc1cc(/C=N\N(C)c2nc(-c3ccccc3)cc(-c3ccc(Br)cc3)n2)ccc1O | active |
| CCC(Sc1nnc(COc2ccccc2C)n1C)C(=O)Nc1ccc(C(C)=O)cc1 (stereo not shown) | inactive |
| O=C(Nc1ccc(O)cc1C(=O)O)c1ccc(C(=O)Nc2ccc(O)cc2C(=O)O)cc1 | inactive |
| Cc1ccc(OCCOCCOc2ccccc2/C=C2\SC(=N)NC2=O)cc1 | active |

====

- System: Mouse PERK
- procedure_text: In vitro kinase inhibition assay: PERK-mediated eIF2α phosphorylation
- Type: biochemical
- measurement_context: compounds selected in the initial VLS
measurement_label: Activity (ability to inhibit PERK-mediated eIF2α phosphorylation in vitro)

| compound_structure_string | obs_value |
| --- | --- |
| O=C(CNC(=O)c1ccco1)N/N=C/c1ccc(O)cc1 | inactive |
| NS(=O)(=O)c1ccc(CNC(=O)/C=C/c2ccc3c(c2)OCO3)cc1 | inactive |
